Data origin: PubChem BioAssay (NCATS)

# study system: Cytochrome P450 3A7 (Homo sapiens) (UniProt P24462)
# Sequence (P24462 whole entry, looked up): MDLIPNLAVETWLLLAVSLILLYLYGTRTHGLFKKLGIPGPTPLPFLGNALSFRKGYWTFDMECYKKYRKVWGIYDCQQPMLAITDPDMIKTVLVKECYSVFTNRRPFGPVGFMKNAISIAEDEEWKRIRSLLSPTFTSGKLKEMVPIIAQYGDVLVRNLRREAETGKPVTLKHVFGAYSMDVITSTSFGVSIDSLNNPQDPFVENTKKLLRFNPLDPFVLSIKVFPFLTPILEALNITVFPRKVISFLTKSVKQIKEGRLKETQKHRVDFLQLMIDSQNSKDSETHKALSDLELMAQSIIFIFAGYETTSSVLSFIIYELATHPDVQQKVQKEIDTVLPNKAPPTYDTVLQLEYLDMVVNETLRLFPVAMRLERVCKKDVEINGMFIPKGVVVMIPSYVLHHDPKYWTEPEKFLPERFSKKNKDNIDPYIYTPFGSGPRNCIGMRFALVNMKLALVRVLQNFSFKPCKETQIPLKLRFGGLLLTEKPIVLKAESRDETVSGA
# protocol details: Cytochrome P450 family 3 subfamily A member 7 (CYP3A7) small molecule antagonists: luciferase biochemical qHTS assay (AID 1963596); also: nearly all actives have a fitted effect of over 40% in size; also: potency is read from the fitted curve at half-maximal effect
# assay setup: P450-Glo CYP3A7 enzyme luminescence, 1 h; series mostly up to 57.4 µM
Records with an inconclusive call do not appear. The source made the active and inactive calls. Calls follow the shape of the dose curve; as a rule, active = well fitted inhibition curve with a large enough effect; inconclusive = small, poorly fitted or top-dose-only effect; inactive = no such curve, though single readings can be large or run the other way.
readout name: Potency

Examples with answers:
CN(C)C(=O)NC1CCC(CCN2CCN(c3cccc(Cl)c3Cl)CC2)CC1 (stereo unspecified) = inactive
CN(C)c1ccc(C2O[C@@H](c3ccccc3)C[C@H](c3ccccc3)O2)cc1 (stereo partly specified) = inactive
C[N+](C)(C)CCCCCC[N+](C)(C)C = inactive
CC(C)(CO)[C@@H](O)C(=O)NCCCO = inactive
Cl/C(=C\n1cncn1)c1ccc(Cl)cc1Cl = inactive

Consider the additional compound presented here.
INPUT: Requested read-out: Potency. Entry: "O=C(NCCCCN1CCN(c2cccc(Cl)c2Cl)CC1)c1cc2ccccc2s1"
OUTPUT: 2.82 µM (active)
